Taken from the supplement of paper PMC10567573.

B1: KCNAB2 (parent)
chain: YVDVVFANRPDPNTPMEETVRAMT

Variants of: B1
method-notes: protein stability index of a GFP-peptide fusion (GPS, HEK-293T) (PSI 1-6); higher = more stable;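 also: lentivirally expressed fusions sorted by FACS into six bins by GFP to DsRed ratio, PSI derived from sequencing read proportions per bin multiplied by bin number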
stated-conditions: c terminus: a fixed tail appended
assay-readout: protein stability index
One number for each entry.

Worked examples follow.
D3A | 2
P10R | 2.13

Parameter requested: protein stability index. Apply to each item below.
1. D3W
2. T19V
3. R21L
4. P12W

1. 2.8
2. 2.01
3. 2.64
4. 2.04

Parameter requested: protein stability index. Apply to each item below.
1. M23I
2. E17Q
3. T14Y
4. P15C
5. T24Q

1: 1.82; 2: 2.14; 3: 2.4; 4: 2.67; 5: 2.09

Parameter requested: protein stability index. Apply to each item below.
1. D11H
2. V20D
3. P15S
4. V2A
5. N8M
6. Y1F
7. V2Q
8. P10G

1. 2.28
2. 1.76
3. 2.69
4. 2.96
5. 3.09
6. 1.94
7. 3.32
8. 2.65

Parameter requested: protein stability index. Apply to each item below.
1. V4K
2. V5D
3. R21T
4. D3Y
5. E18M
6. M16K
7. V5E

[2.31, 2.13, 1.96, 2.34, 3.06, 1.8, 2.5]

Look up protein stability index for this variant: V5R
2.45
